- tested system: human PAD4 (Homo sapiens, UniProt Q9UM07)
- Construct: human PAD4 (NM_012387), A2-P663, was PCR amplified; His-SUMO (N, cleaved yes)
- Sequence (Q9UM07 2-663): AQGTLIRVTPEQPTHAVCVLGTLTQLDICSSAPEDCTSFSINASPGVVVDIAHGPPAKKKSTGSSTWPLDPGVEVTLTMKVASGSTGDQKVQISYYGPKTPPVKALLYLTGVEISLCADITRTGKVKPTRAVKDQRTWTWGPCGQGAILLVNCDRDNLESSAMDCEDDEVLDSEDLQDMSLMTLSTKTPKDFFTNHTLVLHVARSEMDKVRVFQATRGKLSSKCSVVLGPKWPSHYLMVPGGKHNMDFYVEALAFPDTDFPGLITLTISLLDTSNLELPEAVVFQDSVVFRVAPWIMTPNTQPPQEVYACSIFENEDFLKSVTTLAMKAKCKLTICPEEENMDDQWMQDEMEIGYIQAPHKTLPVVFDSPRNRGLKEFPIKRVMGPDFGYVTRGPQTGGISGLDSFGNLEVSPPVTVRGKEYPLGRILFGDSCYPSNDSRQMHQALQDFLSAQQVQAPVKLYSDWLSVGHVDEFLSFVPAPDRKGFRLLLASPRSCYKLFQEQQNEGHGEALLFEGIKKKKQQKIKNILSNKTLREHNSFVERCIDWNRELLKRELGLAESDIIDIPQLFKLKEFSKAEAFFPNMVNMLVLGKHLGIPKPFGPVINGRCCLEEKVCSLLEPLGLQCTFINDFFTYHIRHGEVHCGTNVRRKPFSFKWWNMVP
- protocol description: In vitro PAD4 BAEE biochemical assay
- measurement parameters: BAEE substrate 3 mM, 5 nM PAD4, 2 mM calcium chloride; geometric mean of multiple experiments
endpoint: IC50 (nM)
Answer with a number only, understood to be in nM.

Example compounds with recorded IC50:
mol	tested system	IC50 / nM
CO[C@@H]1CCN(C(=O)c2cc(F)c3c(c2)nc(-c2cc4ccc5nc4n2CCCCCC[C@@](F)(c2cccc(Cl)n2)C(=O)N[C@@H]5C)n3C2CC2)C[C@@H]1N	human PAD4 (Homo sapiens, UniProt Q9UM07)	148
COc1cc(C(=O)N2C[C@H](N)[C@@H]3CC[C@H]2C3)cc2nc(-c3cc4ccc5nc4n3CCCCCC[C@@](C)(F)C(=O)N[C@@H]5C)n(C)c12	human PAD4 (Homo sapiens, UniProt Q9UM07)	28

human PAD4 (Homo sapiens, UniProt Q9UM07) data for COc1cc(C(=O)N2CC[C@H]3OCCN[C@H]3C2)cc2nc(-c3cc4ccc5cc4n3CCCCCCC(C)(C)C(=O)N[C@@H]5C)n(C)c12 ; its IC50: 94

###

- tested system: human PAD4 (Homo sapiens)
- Construct: human PAD4 (NM_012387), A2-P663, was PCR amplified; His-SUMO (N, cleaved yes)
- protocol description: In vitro PAD4 BAEE biochemical assay
- measurement parameters: BAEE substrate 3 mM, 5 nM PAD4, 2 mM calcium chloride; geometric mean of multiple experiments
Labelling field: enter T if recorded IC50 is less than 80 nM. Enter F if it equals or exceeds that cut-off.

A selection of reference data follows.
compound	class
COc1cc(C(=O)N2CC[C@@H](OC)[C@@H](N)C2)cc2nc(-c3cc4ccc5nc4n3CCCCCCC(F)(F)C(=O)N[C@@H]5C)n(C)c12 [Example 374]	F
COc1cc(C(=O)N2CC[C@@H](OC(F)F)[C@@H](N)C2)cc2nc(-c3cc4ccc5nc4n3CC(F)(F)CCCC[C@@](C)(C(F)(F)F)C(=O)N[C@@H]5C)n(C)c12 [Example 730]	F
COc1cc(C(=O)N2C[C@H](N)[C@@H]3CC[C@H]2C3)cc2nc(-c3cc4ccc5nc4n3CC(F)(F)CCCOC3(CC3)C(=O)N[C@@H]5C)n(C3CC3)c12 [Example 931]	T

### Prompt Here's an entry: C[C@H]1NC(=O)C(C)(C)CCCCCCn2c(-c3nc4cc(C(=O)N[C@@H]5CCCNC5)c(F)cc4n3C3CC3)cc3ccc1nc32 [Example 176] . Is its IC50 below 80 nM?
### Response F

### Prompt Here's an entry: COCCn1c(-c2cc3ccc4nc3n2CCCCC[C@@H]2C[C@H]2C(=O)N[C@@H]4C)nc2cc(C(=O)N[C@H]3CNCC[C@@H]3F)c(F)cc21 [Example 422] . Is its IC50 below 80 nM?
### Response T

### Prompt Here's an entry: COc1cc(C(=O)N2C[C@H](N)C[C@@H](F)C2)cc2nc(-c3cc4ccc5nc4n3CC(F)(F)CCCC[C@@](C)(C(F)(F)F)C(=O)N[C@@H]5C)n(C)c12 [Example 728] . Is its IC50 below 80 nM?
### Response T

### Prompt Here's an entry: COc1cc(C(=O)N2CC[C@@H](OC(F)F)[C@@H](N)C2)cc2nc(-c3cc4ccc5nc4n3CCCCCc3nccnc3C(=O)N[C@@H]5C)n(C3CC3)c12 [Example 612] . Is its IC50 below 80 nM?
### Response F

### Prompt Here's an entry: C[C@H]1NC(=O)[C@](F)(c2cccc(Cl)n2)CCCCCCn2c(-c3nc4cc(C(=O)N5C[C@H](N)[C@@H]6CC[C@H]5C6)cc(F)c4n3C3CC3)cc3ccc1nc32 [Example 481] . Is its IC50 below 80 nM?
### Response F

### Prompt Here's an entry: COc1cc(C(=O)N2CCC[C@@H](N)C2)cc2nc(-c3cc4ccc5nc4n3CCCCCCC(=O)N[C@@H]5C)c(C)n12 [Example 300] . Is its IC50 below 80 nM?
### Response T

### Prompt Here's an entry: COc1cc(C(=O)N2CC[C@@H](OC(F)F)[C@@H](N)C2)cc2nc(-c3cc4ccc5cc4n3CCCCCc3nccnc3C(=O)N[C@@H]5C)n(C)c12 [Example 577] . Is its IC50 below 80 nM?
### Response F

### Prompt Here's an entry: COc1cc(C(=O)N2[C@H]3CC[C@@H]2[C@H](N)C3)cc2nc(-c3cc4ccc5nc4n3CCCCC[C@H](OC)CC(=O)N[C@@H]5C)c(C)n12 [Example 332] . Is its IC50 below 80 nM?
### Response T

###

- tested system: human PAD4 (Homo sapiens, UniProt Q9UM07)
- Construct: human PAD4 (NM_012387), A2-P663, was PCR amplified; His-SUMO (N, cleaved yes)
- protocol description: In vitro PAD4 BAEE biochemical assay
- measurement parameters: BAEE substrate 3 mM, 5 nM PAD4, 2 mM calcium chloride; geometric mean of multiple experiments
pIC50: −log10 of the molar value.
Binary classification by pIC50, with 7 as an inclusive lower bound for label 1; all other cases are label 0.

mol	tested system	class
COCCOCCn1c(-c2cc3ccc4nc3n2CCCCC[C@@H]2C[C@H]2C(=O)N[C@@H]4C)nc2cc(C(=O)N[C@H]3CNCC[C@@H]3F)c(F)cc21	human PAD4 (Homo sapiens, UniProt Q9UM07)	label 1
COc1cc(C(=O)N2CC[C@@H](OC)[C@@H](N)C2)cc2nc(-c3cc4ccc5nc4n3CCCCCc3cncc(F)c3C(=O)N[C@@H]5C)n(C)c12	human PAD4 (Homo sapiens, UniProt Q9UM07)	label 1
C[C@H]1NC(=O)[C@@H]2C[C@H]2CCCC(F)(F)Cn2c(-c3nc4cc(C(=O)N[C@H]5CNCC[C@@H]5F)c(F)c(F)c4n3C)cc3ccc1nc32	human PAD4 (Homo sapiens, UniProt Q9UM07)	label 1
COc1cc(C(=O)N2CCC[C@@H](N)C2)cc2nc(-c3cc4ccc5nc4n3CCCCCCNC(=O)c3cccc(C)c3-5)n(C)c12	human PAD4 (Homo sapiens, UniProt Q9UM07)	label 0
CO[C@@H]1CCN(C(=O)c2ccc3c(c2)nc(-c2cc4ccc5nc4n2CCCCCc2ccnc(C)c2C(=O)N[C@@H]5C)n3C2CC2)C[C@@H]1N	human PAD4 (Homo sapiens, UniProt Q9UM07)	label 1
COc1cc(C(=O)N2CC[C@@H](OC)[C@@H](N)C2)cc2nc(-c3cc4ccc5nc4n3CCCCC[C@H]3C[C@]3(F)C(=O)N[C@@H]5C)n(C)c12	human PAD4 (Homo sapiens, UniProt Q9UM07)	label 0

### Prompt Check this compound for pIC50 at or above 7: COc1cc(C(=O)N[C@H]2CNCC[C@H]2O)cc2nc(-c3cc4ccc5nc4n3CCCCCCC(C)(C)C(=O)N[C@@H]5C)n(C)c12
### Response label 0

### Prompt Check this compound for pIC50 at or above 7: COc1cc(C(=O)N2C[C@H](N)[C@@H]3CC[C@H]2C3)cc2nc(-c3cc4ccc5nc4n3CCCCC[C@]3(F)C[C@H]3C(=O)N[C@@H]5C)c(C3CC3)n12
### Response label 1

### Prompt Check this compound for pIC50 at or above 7: C[C@H]1NC(=O)C2(CC2)OCCCC(F)(F)Cn2c(-c3nc4cc(C(=O)N5C[C@H](N)[C@@H]6CC[C@H]5C6)cc(F)c4n3C3CC3)cc3ccc1nc32
### Response label 1

###

- tested system: human PAD4 (Homo sapiens)
- Construct: human PAD4 (NM_012387), A2-P663, was PCR amplified; His-SUMO (N, cleaved yes)
- protocol description: In vitro PAD4 BAEE biochemical assay
- measurement parameters: BAEE substrate 3 mM, 5 nM PAD4, 2 mM calcium chloride; geometric mean of multiple experiments
IC50 overview
Answer with a number only, understood to be in nM.

compound	IC50 / nM
COc1cc(C(=O)N2CCC[C@@H](N)C2)cc2nc(-c3cc4ccc5nc4n3CCCOC[C@H]3C[C@H]3C(=O)N[C@@H]5C)n(C)c12 [Example 308]	72

IC50 measured on COc1cc(C(=O)N2CCC[C@@H](N)C2)cc2nc(-c3cc4ccc5nc4n3CCCCCCC3(CC3)C(=O)N[C@@H]5C)n(C)c12 [Example 233] = 82

IC50 measured on C[C@H]1NC(=O)C(C)(C)CCCCCCn2c(-c3nc4cc(C(=O)N[C@H]5CNCC[C@@H]5F)c(F)cc4n3C3CCC3)cc3ccc1nc32 [Example 420] = 184

IC50 measured on COc1cc(C(=O)N2C[C@H](N)[C@@H]3CC[C@H]2C3)cc2nc(-c3cc4ccc5nc4n3CCCCCc3cc4ccccc4nc3C(=O)N[C@@H]5C)n(C)c12 [Example 461] = 51

IC50 measured on [2H]C1([2H])[C@H](N)[C@@H]2CC[C@@H](C2)N1C(=O)c1cc(OC)c2c(c1)nc(-c1cc3ccc4nc3n1CCCCCc1ccccc1C(=O)N[C@@H]4C)n2C [Example 770] = 5

IC50 measured on COc1cc(C(=O)N2CC[C@@H](OC(F)F)[C@@H](N)C2)cc2nc(-c3cc4ccc5nc4n3CCCCCC[C@@](C)(C(F)(F)F)C(=O)N[C@@H]5C)n(C)c12 [Example 723] = 309

IC50 measured on COc1cc(C(=O)N2CCC[C@@H](N)C2)cc2nc(-c3cc4ccc5nc4n3CCCCC[C@@H](OC)C(C)(C)C(=O)N[C@@H]5C)n(C)c12 [Example 153] = 116

IC50 measured on COC[C@H]1CCN(C(=O)c2cc(OC)c3c(c2)nc(-c2cc4ccc5nc4n2CCCCCCC(C)(C)C(=O)N[C@@H]5C)n3C)C[C@@H]1N [Example 677] = 82

Origin of values: patent US11976083B2
